Target: cone CNG channels (CNGA3:CNGB3) (Homo sapiens, UniProt Q16281+Q9NQW8)
Construct: expressed in transfected cells; host or cells: Xenopus laevis oocytes (cRNA injection, pGEMHE vector); inside-out patches
Sequence (Q16281 whole entry): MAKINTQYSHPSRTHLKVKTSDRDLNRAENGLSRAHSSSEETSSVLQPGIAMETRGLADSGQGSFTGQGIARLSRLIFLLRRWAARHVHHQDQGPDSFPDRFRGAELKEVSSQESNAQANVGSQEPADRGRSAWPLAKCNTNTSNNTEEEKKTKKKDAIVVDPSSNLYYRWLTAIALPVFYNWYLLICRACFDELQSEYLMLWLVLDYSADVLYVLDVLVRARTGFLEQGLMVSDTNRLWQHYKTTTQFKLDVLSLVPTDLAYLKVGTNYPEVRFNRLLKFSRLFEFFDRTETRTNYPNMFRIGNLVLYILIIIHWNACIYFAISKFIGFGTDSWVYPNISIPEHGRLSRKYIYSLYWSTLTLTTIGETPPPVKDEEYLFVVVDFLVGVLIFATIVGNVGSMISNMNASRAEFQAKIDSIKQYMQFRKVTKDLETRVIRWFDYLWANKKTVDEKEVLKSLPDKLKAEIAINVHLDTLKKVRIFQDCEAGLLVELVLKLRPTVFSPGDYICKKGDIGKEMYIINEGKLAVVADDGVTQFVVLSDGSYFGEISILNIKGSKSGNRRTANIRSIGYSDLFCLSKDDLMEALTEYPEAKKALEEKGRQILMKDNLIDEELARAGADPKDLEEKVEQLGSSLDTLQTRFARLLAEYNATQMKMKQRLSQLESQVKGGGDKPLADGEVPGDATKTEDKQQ
Sequence (Q9NQW8 whole entry): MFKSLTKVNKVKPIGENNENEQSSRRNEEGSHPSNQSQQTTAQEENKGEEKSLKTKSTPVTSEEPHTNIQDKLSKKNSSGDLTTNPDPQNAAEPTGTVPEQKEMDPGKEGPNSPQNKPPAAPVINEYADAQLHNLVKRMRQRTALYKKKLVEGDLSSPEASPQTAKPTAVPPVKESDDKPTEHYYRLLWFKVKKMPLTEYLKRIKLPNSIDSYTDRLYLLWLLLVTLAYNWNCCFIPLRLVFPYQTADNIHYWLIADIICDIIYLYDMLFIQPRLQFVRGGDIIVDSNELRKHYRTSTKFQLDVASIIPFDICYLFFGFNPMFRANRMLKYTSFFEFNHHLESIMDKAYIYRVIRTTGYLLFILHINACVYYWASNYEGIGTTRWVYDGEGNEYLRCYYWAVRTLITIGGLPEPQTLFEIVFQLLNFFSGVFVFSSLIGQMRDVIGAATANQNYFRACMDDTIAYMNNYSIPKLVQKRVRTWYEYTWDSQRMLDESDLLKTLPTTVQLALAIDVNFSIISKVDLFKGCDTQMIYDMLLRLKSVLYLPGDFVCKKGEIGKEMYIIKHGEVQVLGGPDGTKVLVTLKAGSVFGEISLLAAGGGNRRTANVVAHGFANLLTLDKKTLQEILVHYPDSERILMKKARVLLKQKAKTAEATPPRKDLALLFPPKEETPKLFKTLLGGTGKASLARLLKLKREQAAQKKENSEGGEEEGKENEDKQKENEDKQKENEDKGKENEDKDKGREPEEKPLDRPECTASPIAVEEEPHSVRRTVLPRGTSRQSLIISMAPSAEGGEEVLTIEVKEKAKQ
Assay: Patch-clamp on inside-out patches, heterotetrameric cone CNG channels expressed in Xenopus laevis oocytes
Assay type: cell-based
Settings: cGMP + 50 µM of the cGMP analogue
Property Name: H (Hill coefficient), cone CNG channels
Just the number, please, no unit after it.

[[record]]
mol = "O=c1c2nc(Br)n([C@@H]3O[C@@H]4CO[P@@](=O)(S)O[C@H]4[C@H]3O)c2nc2[nH]c(-c3ccc4ccccc4c3)cn12"
tested_target = "cone CNG channels (CNGA3:CNGB3) (Homo sapiens, UniProt Q16281+Q9NQW8)"
property_name = "H (Hill coefficient), cone CNG channels"
numeric_result = 1.53

[[record]]
mol = "O=c1c2ncn([C@@H]3O[C@@H]4CO[P@@](=O)(S)O[C@H]4[C@H]3O)c2nc2[nH]c(-c3ccc4ccccc4c3)cn12"
tested_target = "cone CNG channels (CNGA3:CNGB3) (Homo sapiens, UniProt Q16281+Q9NQW8)"
property_name = "H (Hill coefficient), cone CNG channels"
numeric_result = 1.84

[[record]]
mol = "Nc1nc2c(ncn2[C@@H]2O[C@@H]3CO[P@@](=O)(S)O[C@H]3[C@H]2O)c(=O)[nH]1"
tested_target = "cone CNG channels (CNGA3:CNGB3) (Homo sapiens, UniProt Q16281+Q9NQW8)"
property_name = "H (Hill coefficient), cone CNG channels"
numeric_result = 1.13

[[record]]
mol = "O=c1c2nc(Br)n([C@@H]3O[C@@H]4CO[P@@](=O)(S)O[C@H]4[C@H]3O)c2nc2[nH]c(-c3ccccc3)cn12"
tested_target = "cone CNG channels (CNGA3:CNGB3) (Homo sapiens, UniProt Q16281+Q9NQW8)"
property_name = "H (Hill coefficient), cone CNG channels"
numeric_result = 1.97

[[record]]
mol = "O=c1c2nc(Br)n([C@@H]3O[C@@H]4COP(=O)(O)O[C@H]4[C@H]3O)c2nc2[nH]c(-c3ccccc3)cn12"
tested_target = "cone CNG channels (CNGA3:CNGB3) (Homo sapiens, UniProt Q16281+Q9NQW8)"
property_name = "H (Hill coefficient), cone CNG channels"
numeric_result = 1.5


input: Indicate its recorded H (Hill coefficient), cone CNG channels; the molecule in question is O=C1Cn2c(nc3c(nc(Br)n3[C@@H]3O[C@@H]4CO[P@@](=O)(S)O[C@H]4[C@H]3O)c2=O)N1
output: 1.64

input: Give H (Hill coefficient), cone CNG channels for the following molecule: Nc1nc2c(nc(Sc3ccc(Cl)cc3)n2[C@@H]2O[C@@H]3CO[P@@](=O)(S)O[C@H]3[C@H]2O)c(=O)[nH]1
output: 1.04

====

Target: rod CNG channels (CNGA1:CNGB1a) (Bos taurus, UniProt Q00194+Q28181)
Construct: expressed in transfected cells; host or cells: Xenopus laevis oocytes (cRNA injection, pGEMHE vector); inside-out patches
Sequence (Q00194 whole entry): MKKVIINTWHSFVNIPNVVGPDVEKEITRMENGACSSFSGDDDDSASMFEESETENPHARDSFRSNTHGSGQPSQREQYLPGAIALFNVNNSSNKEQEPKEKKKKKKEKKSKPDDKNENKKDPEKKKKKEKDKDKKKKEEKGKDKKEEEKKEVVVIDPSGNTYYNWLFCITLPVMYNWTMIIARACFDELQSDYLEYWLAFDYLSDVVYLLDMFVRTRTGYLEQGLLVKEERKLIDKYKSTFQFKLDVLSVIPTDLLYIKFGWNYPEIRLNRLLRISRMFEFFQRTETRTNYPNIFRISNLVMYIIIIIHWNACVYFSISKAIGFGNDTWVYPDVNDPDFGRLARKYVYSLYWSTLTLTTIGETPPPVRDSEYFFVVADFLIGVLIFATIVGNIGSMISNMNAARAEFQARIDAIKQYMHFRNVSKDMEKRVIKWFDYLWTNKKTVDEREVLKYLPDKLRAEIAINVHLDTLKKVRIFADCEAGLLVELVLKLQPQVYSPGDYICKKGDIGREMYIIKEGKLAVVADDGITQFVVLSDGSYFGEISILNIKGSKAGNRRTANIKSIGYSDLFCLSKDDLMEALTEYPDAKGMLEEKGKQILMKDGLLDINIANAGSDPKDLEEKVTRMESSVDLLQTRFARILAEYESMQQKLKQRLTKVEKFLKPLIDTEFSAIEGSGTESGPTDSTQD
Sequence (Q28181 whole entry): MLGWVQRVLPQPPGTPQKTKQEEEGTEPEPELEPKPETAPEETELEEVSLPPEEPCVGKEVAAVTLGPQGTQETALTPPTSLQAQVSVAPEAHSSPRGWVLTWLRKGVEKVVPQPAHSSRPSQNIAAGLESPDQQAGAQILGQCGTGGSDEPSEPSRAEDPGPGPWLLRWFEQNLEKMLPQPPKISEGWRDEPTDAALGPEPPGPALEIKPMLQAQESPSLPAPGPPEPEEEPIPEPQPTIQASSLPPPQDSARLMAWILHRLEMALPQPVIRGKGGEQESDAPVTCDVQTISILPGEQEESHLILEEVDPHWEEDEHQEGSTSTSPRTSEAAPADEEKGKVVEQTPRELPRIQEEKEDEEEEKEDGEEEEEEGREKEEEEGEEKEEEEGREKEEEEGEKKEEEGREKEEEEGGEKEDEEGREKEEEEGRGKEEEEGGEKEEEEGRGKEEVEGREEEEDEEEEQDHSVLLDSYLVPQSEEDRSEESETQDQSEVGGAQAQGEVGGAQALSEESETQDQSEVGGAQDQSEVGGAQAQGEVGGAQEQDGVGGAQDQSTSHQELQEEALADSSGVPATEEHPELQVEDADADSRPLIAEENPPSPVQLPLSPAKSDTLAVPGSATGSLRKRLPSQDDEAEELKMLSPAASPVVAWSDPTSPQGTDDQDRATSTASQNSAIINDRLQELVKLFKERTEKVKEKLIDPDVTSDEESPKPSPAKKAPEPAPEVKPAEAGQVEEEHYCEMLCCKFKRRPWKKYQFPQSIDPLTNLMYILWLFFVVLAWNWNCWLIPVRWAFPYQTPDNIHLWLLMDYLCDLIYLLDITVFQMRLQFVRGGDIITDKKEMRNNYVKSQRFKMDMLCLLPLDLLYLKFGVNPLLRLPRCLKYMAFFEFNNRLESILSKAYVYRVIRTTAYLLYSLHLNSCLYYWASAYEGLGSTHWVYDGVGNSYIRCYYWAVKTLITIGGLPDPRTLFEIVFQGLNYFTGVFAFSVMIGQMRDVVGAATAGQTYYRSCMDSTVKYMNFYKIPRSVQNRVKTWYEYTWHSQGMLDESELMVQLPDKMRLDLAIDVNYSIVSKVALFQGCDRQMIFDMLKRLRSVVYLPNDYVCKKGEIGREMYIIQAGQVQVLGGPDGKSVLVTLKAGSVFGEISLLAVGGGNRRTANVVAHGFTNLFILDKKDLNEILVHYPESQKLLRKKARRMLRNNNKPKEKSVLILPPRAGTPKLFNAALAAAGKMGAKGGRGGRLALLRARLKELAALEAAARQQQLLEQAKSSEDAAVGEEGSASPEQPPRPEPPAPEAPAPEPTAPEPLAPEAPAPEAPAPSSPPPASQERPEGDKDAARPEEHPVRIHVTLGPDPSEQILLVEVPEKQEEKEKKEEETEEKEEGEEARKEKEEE
Assay: Patch-clamp on inside-out patches, heterotetrameric rod CNG channels expressed in Xenopus laevis oocytes
Assay type: cell-based, bovine
Settings: cGMP + 50 µM of the cGMP analogue
Source text: The patch pipettes were pulled from borosilicate glass tubing (outer diameter 2.0 mm, inner diameter 1.0 mm; Hilgenberg GmbH, Malsfeld, Germany). The initial resistance of the solution-filled pipettes was 0.6–1.4 MΩ. […] For studying the activation and deactivation kinetics of CNG channels, we performed fast jumps between different ligand concentrations by means of a double-barreled θ-glass pipette mounted on a piezo-driven device, which was controlled by the computer. […]
Catalogue of H (Hill coefficient), rod CNG channels readings, one per entry.
Could you respond with only the numeric value?

Consider the worked cases shown below.
[[record]]
molecule = "O=c1c2nc(Br)n([C@@H]3O[C@@H]4CO[P@@](=O)(S)O[C@H]4[C@H]3O)c2nc2[nH]c(-c3ccccc3)cn12 [Rp-8-Br-PET-cGMPS]"
numeric_result = 1.90

[[record]]
molecule = "O=c1c2nc(Br)n([C@@H]3O[C@@H]4CO[P@@](=O)(S)O[C@H]4[C@H]3O)c2nc2[nH]c(-c3ccc4ccccc4c3)cn12 [Rp-8-Br-(2-N)ET-cGMPS]"
numeric_result = 1.66


Would you kindly look at the next entry?
input: Given the molecule O=c1c2nc(Br)n([C@@H]3O[C@@H]4COP(=O)(O)O[C@H]4[C@H]3O)c2nc2[nH]c(-c3ccccc3)cn12 [8-Br-PET-cGMP] , write its reported H (Hill coefficient), rod CNG channels.
output: 1.05

====

Target: cone CNG channels (CNGA3:CNGB3) (Homo sapiens, UniProt Q16281+Q9NQW8)
Construct: expressed in transfected cells; host or cells: Xenopus laevis oocytes (cRNA injection, pGEMHE vector); inside-out patches
Experiment: Patch-clamp on inside-out patches, heterotetrameric cone CNG channels expressed in Xenopus laevis oocytes
Format: cell-based
Conditions: +100 mV, related to maximal cGMP-induced current
Property Name: efficacy in activating cone CNG channels compared to cGMP

[[record]]
mol = "O=c1c2ncn([C@@H]3O[C@@H]4CO[P@@](=O)(S)O[C@H]4[C@H]3O)c2nc2[nH]c(-c3ccc4ccccc4c3)cn12"
tested_target = "cone CNG channels (CNGA3:CNGB3) (Homo sapiens, UniProt Q16281+Q9NQW8)"
result = "lower efficacy than cGMP"

[[record]]
mol = "O=C1Cn2c(nc3c(nc(Br)n3[C@@H]3O[C@@H]4CO[P@@](=O)(S)O[C@H]4[C@H]3O)c2=O)N1"
tested_target = "cone CNG channels (CNGA3:CNGB3) (Homo sapiens, UniProt Q16281+Q9NQW8)"
result = "lower efficacy than cGMP"


====

Target: cone CNG channels (CNGA3:CNGB3) (Homo sapiens, UniProt Q16281+Q9NQW8)
Construct: expressed in transfected cells; host or cells: Xenopus laevis oocytes (cRNA injection, pGEMHE vector); inside-out patches
Assay: Patch-clamp on inside-out patches, heterotetrameric cone CNG channels expressed in Xenopus laevis oocytes
Assay type: cell-based
Property Name: pEC50
Please express pEC50 as -log10 of the molar concentration.

input: Write pEC50 of O=c1c2nc(Br)n([C@@H]3O[C@@H]4CO[P@@](=O)(S)O[C@H]4[C@H]3O)c2nc2[nH]c(-c3ccccc3)cn12 ; system used: cone CNG channels (CNGA3:CNGB3) (Homo sapiens, UniProt Q16281+Q9NQW8)
output: 5.36

====

Target: rod CNG channels (CNGA1:CNGB1a) (Bos taurus, UniProt Q00194+Q28181)
Construct: expressed in transfected cells; host or cells: Xenopus laevis oocytes (cRNA injection, pGEMHE vector); inside-out patches
Assay: Patch-clamp on inside-out patches, heterotetrameric rod CNG channels expressed in Xenopus laevis oocytes
Assay type: cell-based, bovine
Conditions: cGMP + 50 µM of the cGMP analogue
Property Name: H (Hill coefficient), rod CNG channels
Answer with a number only.

Example entries and their recorded answers appear below.
[[record]]
mol = "O=c1c2ncn([C@@H]3O[C@@H]4CO[P@@](=O)(S)O[C@H]4[C@H]3O)c2nc2[nH]c(-c3ccc4ccccc4c3)cn12"
property_name = "H (Hill coefficient), rod CNG channels"
numeric_result = 1.68

[[record]]
mol = "O=C1Cn2c(nc3c(nc(Br)n3[C@@H]3O[C@@H]4CO[P@@](=O)(S)O[C@H]4[C@H]3O)c2=O)N1"
property_name = "H (Hill coefficient), rod CNG channels"
numeric_result = 2.06

[[record]]
mol = "Nc1nc2c(nc(Sc3ccc(Cl)cc3)n2[C@@H]2O[C@@H]3CO[P@@](=O)(S)O[C@H]3[C@H]2O)c(=O)[nH]1"
property_name = "H (Hill coefficient), rod CNG channels"
numeric_result = 1.23


Next, consider the following molecule.
input: Return H (Hill coefficient), rod CNG channels for the following molecule: Nc1nc2c(ncn2[C@@H]2O[C@@H]3CO[P@@](=O)(S)O[C@H]3[C@H]2O)c(=O)[nH]1
output: 1.52

====

Target: cone CNG channels (CNGA3:CNGB3) (Homo sapiens, UniProt Q16281+Q9NQW8)
Construct: expressed in transfected cells; host or cells: Xenopus laevis oocytes (cRNA injection, pGEMHE vector); inside-out patches
Assay: Patch-clamp on inside-out patches, heterotetrameric cone CNG channels expressed in Xenopus laevis oocytes
Type: cell-based
Conditions: +100 mV, related to maximal cGMP-induced current
Property Name: efficacy in activating cone CNG channels compared to cGMP

[[record]]
molecule = "Nc1nc2c(ncn2[C@@H]2O[C@@H]3CO[P@@](=O)(S)O[C@H]3[C@H]2O)c(=O)[nH]1 [Rp-cGMPS]"
result = "lower efficacy than cGMP"

[[record]]
molecule = "O=c1c2nc(Br)n([C@@H]3O[C@@H]4CO[P@@](=O)(S)O[C@H]4[C@H]3O)c2nc2[nH]c(-c3ccc4ccccc4c3)cn12 [Rp-8-Br-(2-N)ET-cGMPS]"
result = "lower efficacy than cGMP"

